Molecular target: T1, human EphA8 (Homo sapiens, UniProt P29322)
T1 construct: a protein of the extracellular region of each human Eph receptor fused with the SEAP protein and the His tag; made in house; host or cells: Expi293F cells (culture supernatant)
T1 sequence (P29322 28-542 limits assumed): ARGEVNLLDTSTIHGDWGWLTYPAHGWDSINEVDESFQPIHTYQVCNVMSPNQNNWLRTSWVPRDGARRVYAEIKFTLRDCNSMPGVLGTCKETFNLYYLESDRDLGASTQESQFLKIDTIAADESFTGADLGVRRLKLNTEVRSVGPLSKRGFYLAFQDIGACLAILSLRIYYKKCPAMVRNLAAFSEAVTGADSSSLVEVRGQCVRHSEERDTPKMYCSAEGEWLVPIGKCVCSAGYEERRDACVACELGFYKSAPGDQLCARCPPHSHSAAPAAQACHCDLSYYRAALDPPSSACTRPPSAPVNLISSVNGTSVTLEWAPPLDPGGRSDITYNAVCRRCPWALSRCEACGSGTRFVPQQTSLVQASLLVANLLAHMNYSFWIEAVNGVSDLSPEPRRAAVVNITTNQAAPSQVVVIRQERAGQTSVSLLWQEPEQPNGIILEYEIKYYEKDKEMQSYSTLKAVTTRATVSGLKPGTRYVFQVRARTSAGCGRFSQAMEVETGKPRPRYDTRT
Test: Selectivity ELISA of humanized antibodies for human Eph receptor
Format: binding
Conditions: coated protein 1 nM
Measure Name: hEphA8-SEAP-: absorbance at 450 nm, percentage with respect to hEphA4-SEAP-His as 100%
Number first, unit second: that is the form wanted.

Request: Quick one: hEphA8-SEAP-: absorbance at 450 nm, percentage with respect to hEphA4-SEAP-His as 100% for 142 (antibody, V domains shown, synthetic humanized antibody heavy chain variable region sequence; synthetic humanized antibody light chain variable region sequence) VH: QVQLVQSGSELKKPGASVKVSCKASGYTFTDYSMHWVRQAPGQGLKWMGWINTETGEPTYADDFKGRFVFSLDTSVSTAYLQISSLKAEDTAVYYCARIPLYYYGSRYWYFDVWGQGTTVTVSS VL: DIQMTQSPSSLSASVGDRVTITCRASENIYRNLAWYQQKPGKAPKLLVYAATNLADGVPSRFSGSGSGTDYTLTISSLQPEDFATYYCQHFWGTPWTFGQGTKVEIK ?
Response: 5.7%

Request: Bench note: what hEphA8-SEAP-: absorbance at 450 nm, percentage with respect to hEphA4-SEAP-His as 100% did 153 (antibody, V domains shown, synthetic humanized antibody heavy chain variable region sequence; synthetic humanized antibody light chain variable region sequence) VH: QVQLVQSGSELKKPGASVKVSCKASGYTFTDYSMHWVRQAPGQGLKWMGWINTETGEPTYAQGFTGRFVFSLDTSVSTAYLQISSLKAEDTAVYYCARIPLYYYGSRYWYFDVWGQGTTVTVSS VL: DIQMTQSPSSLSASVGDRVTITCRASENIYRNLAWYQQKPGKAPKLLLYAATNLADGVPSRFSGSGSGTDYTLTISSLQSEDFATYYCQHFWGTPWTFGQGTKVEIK show?
Response: 6.1%
